Cited source: patent US20240360248A1

TARGET OR TEST SYSTEM: T1, human PTK7-Fc protein antigen (human, UniProt Q13308 31-704)
T1 construct: extracellular domain; also called human PTK7 extracellular segment protein; not shown: Fc from the pFUSE-IgG recombinant plasmid
T1 sequence (looked up): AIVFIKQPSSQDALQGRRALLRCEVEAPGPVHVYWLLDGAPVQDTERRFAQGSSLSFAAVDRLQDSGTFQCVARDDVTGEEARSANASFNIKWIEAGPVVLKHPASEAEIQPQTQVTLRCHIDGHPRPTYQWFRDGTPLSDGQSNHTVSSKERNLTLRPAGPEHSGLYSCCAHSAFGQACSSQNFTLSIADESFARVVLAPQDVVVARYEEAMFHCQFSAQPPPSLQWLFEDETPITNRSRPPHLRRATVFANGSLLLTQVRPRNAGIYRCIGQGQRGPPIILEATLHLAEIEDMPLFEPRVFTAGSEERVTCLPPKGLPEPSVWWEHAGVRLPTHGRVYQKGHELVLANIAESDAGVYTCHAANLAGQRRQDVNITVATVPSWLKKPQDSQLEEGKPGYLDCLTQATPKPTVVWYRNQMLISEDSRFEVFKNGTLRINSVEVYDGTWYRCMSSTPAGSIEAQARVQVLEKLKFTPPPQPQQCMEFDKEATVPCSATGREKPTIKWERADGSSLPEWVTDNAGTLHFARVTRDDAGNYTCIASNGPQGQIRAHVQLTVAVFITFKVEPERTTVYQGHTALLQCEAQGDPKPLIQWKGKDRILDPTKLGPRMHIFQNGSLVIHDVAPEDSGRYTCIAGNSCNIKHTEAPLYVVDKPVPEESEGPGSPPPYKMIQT
ASSAY SUMMARY: SPR (Biacore 8K), human PTK7-Fc amine-coupled on CM-5 chip, VHH as analyte
EXPERIMENTAL READOUT: kon (M⁻¹ s⁻¹)
Give the quantity in M⁻¹ s⁻¹, number only.

Use these answered entries as a reference point.
[
  {
    "BINDER": "MY2132-4-55 (VHH, Camel VHH expressed in E. coli WK6 and purified on a nickel column; also called MY2132-4-55 VHH; anti-PTK7 single domain antibody) VHH: QVQLQESGGGSVQAGGSLRLSCAASGYIWSRYCMGWFRQAPGKAREGVARFNSDGNTRYVDSVKGRFTISRDNAKNTLYLQMNNLQPEDTARYYCAADPRFDCGYDAVFNPTHFPYWGRGTQVTVSS",
    "EXPERIMENTAL READOUT": "kon",
    "RECORDED NUMBER": "1.76e+06"
  },
  {
    "BINDER": "MY2132-4-22 (VHH, Camel VHH expressed in E. coli WK6 and purified on a nickel column; also called MY2132-4-22 VHH; anti-PTK7 single domain antibody) VHH: QVQLQESGGGSVQAGGSLRLSCTASGFTFDDYDMVWYRQAPGNEYEWLSTVSRGGNLYYADSVKGRFTISRDNAKNTVYLNMSRVKPEDTAVYYCAADLRSVPSTYRARTCRGRYCRDYWGQGTQVTVSS",
    "EXPERIMENTAL READOUT": "kon",
    "RECORDED NUMBER": "1.51e+07"
  },
  {
    "BINDER": "MY2132-4-79 (VHH, Camel VHH expressed in E. coli WK6 and purified on a nickel column; also called MY2132-4-79 VHH; anti-PTK7 single domain antibody) VHH: QVQLQESGGGSVQAGGSLRLSCAASGYIWSRYCMGWFRQAPGKAREGVARFNSDGNTRYVDSVKGRFTISRDNAKNTLYLQMNNLQPEDTARYYCAADPRFDCGYDAVFNPTHFPYWGQGTQVTVSS",
    "EXPERIMENTAL READOUT": "kon",
    "RECORDED NUMBER": "1.64e+06"
  }
]

Now turn to the next binder.
Q. Looking for the measured kon of MY2132-5-51 (VHH, Camel VHH expressed in E. coli WK6 and purified on a nickel column; also called MY2132-5-51 VHH; anti-PTK7 single domain antibody) VHH: QVQLQESGGGLVQPGGSLTLACAASGFAFSSYAMRWVRQAPGKGLEGVSSISAGGDETYYADFAKGRFTISRDNAKNTLYLQLNSLKTEDTAMYYCAKGDRNSPRYSSWPITPVGQGTQVTVSS , can you help?
A. 482000
